Taken from patent US20230398130A1.

System: ISC-enriched organoids
ASSAY_COMMENT: Primary screen, 384-well 2.5-D organoid differentiation (ENR+CD, 6 days): basal lysozyme secretion (LYZ.NS)
Assay type: cell-based, murine
ASSAY_CONDITIONS: Dose 0.08 uM; standard z score of FC
READOUT_LABEL: Z.LYZ.NS
// no unit, no text: just the number

Query: Please list Z.LYZ.NS recorded for the molecule Cc1ccc2c(=O)c3cccc(CC(=O)O)c3oc2c1C
Response: −0.065

Query: Please list Z.LYZ.NS recorded for the molecule FC(F)(F)c1ccc(/C=C/c2nc(COc3ccc(CCCCn4ccnn4)cc3)co2)cc1
Response: −0.500

Query: Please list Z.LYZ.NS recorded for the molecule NC(=O)C1CCCc2c1[nH]c1ccc(Cl)cc21 (centres unmarked) [EX 527 (Selisistat)]
Response: 0.871

Query: Please list Z.LYZ.NS recorded for the molecule CNC(=O)c1ccc(N2C(=S)N(c3ccc(C#N)c(C(F)(F)F)c3)C(=O)C2(C)C)cc1F [Enzalutamide (MDV3100)]
Response: 1.411

Query: Please list Z.LYZ.NS recorded for the molecule C=CCc1cccc(/C=N/NC(=O)CN2CCN(Cc3ccccc3)CC2)c1O
Response: 1.365

Query: Please list Z.LYZ.NS recorded for the molecule CC(C)C[C@H](NC(=O)[C@@H](NC(=O)c1cccc(-c2ccccc2)n1)[C@@H](C)O)B(O)O
Response: −0.937

Query: Please list Z.LYZ.NS recorded for the molecule C[C@](O)(COc1ccc(C#N)cc1)C(=O)Nc1ccc(C#N)c(C(F)(F)F)c1
Response: 0.309

Query: Please list Z.LYZ.NS recorded for the molecule O=C(Nc1cccnc1)N1CCC(Cc2cccc(Oc3ccc(C(F)(F)F)cn3)c2)CC1
Response: 0.532
